Tested on: U2OS
Assay: Multiplex assay against U2OS
Type: toxicity, cell-based
Details: human, 12 h, 10 µM, compound concentration 10 uM, replicate 2
Give t when the value for Population Mitochondria Different-Phenotype (%) is at least 4%. Give f when it is less.

Molecule	Classification
CN1CCN(c2nc3cc(C(F)(F)F)ccc3n3cccc23)CC1.O=C(O)/C=C\C(=O)O.O=C(O)/C=C\C(=O)O	t
C[C@@H]1C[C@H]2[C@@H]3CCC4=CC(=O)C=C[C@]4(C)[C@@]3(F)[C@@H](O)C[C@]2(C)[C@@]1(O)C(=O)CO [DEXAMETHASONE]	f
CN(C)CCCc1cc(C(=O)Nc2ccc(-c3ccncc3)cc2)ccc1O.Cl.Cl	t
CC(=O)NCCc1c(Cc2ccccc2)[nH]c2ccccc12 [LUZINDOLE]	f

# check: Population Mitochondria Different-Phenotype (%) of Cc1ccc(C(C)(O)c2nc3ccccc3s2)c(C)c1 (stereo not drawn) is greater than or equal to 4%
f

# check: Population Mitochondria Different-Phenotype (%) of `CC[C@H]1OC(=O)[C@H](C)[C@@H](O[C@H]2C[C@@](C)(OC)[C@@H](O)[C@H](C)O2)[C@H](C)[C@@H](O[C@@H]2O[C@H](C)C[C@H](N(C)C)[C@H]2O)[C@@]2(C)CC(C)=C(O2)[C@H](C)[C@@H](O)[C@]1(C)O` is greater than or equal to 4%
t

# check: Population Mitochondria Different-Phenotype (%) of `CCCn1c(=O)c2[nH]c(C3CCCC3)nc2n(CCC)c1=O` is greater than or equal to 4%
t

----------
# Population Pyknosed Nuclei (%) values compiled below
Test system: HEK-293T
Assay: Multiplex assay against HEK293T
Format: toxicity, cell-based
Conditions: human, 12 h, 10 µM, compound concentration 10 uM, replicate 1
The response must be a number in % with no trailing unit.

Answered examples (8):
Compound	Tested System	Unit Of Measure	Test Result
C[C@H]1[C@H]2CC[C@H]3[C@@H]4CC=C5C[C@@H](N(C)C)CC[C@]5(C)[C@H]4CC[C@]23CN1C [CONESSINE]	HEK-293T	%	15
CC1(COc2ccc3c(c2)ncn3-c2ccc3cccc(N4CCC(N)CC4)c3n2)COC1 [CRENOLANIB]	HEK-293T	%	18
CC(C)(C)c1ccc(S(=O)(=O)Nc2ccc(Cl)cc2C(=O)c2cc[n+]([O-])cc2)cc1 [VERCIRNON]	HEK-293T	%	10
CCOc1c2c(c(OCC)c3ncccc13)CN(c1ccc(CS(=O)(=O)NC(=O)Cc3ccccc3OC)cc1C)C2=O	HEK-293T	%	12
Cc1ccc(/C(=C\CN2CCCC2)c2ccccn2)cc1 [TRIPROLIDINE]	HEK-293T	%	16
Cc1ccc(-c2ccc(F)cc2COc2ccc(CCC(=O)O)cc2)cc1	HEK-293T	%	10
CNC[C@H](O)c1ccc(O)c(O)c1 [EPINEPHRINE]	HEK-293T	%	11
COc1c(C)cc(NC(=O)c2nn(Cc3ccc(F)cc3)c3c2CN(C(=O)c2ccc[nH]2)C[C@]3(C)C(N)=O)cc1C	HEK-293T	%	17

Field: Population Pyknosed Nuclei (%) (HEK-293T). Entry: `CN1CCN(c2nc3cc(C(F)(F)F)ccc3n3cccc23)CC1.O=C(O)/C=C\C(=O)O.O=C(O)/C=C\C(=O)O`
15

Field: Population Pyknosed Nuclei (%) (HEK-293T). Entry: N#Cc1c(N)nc(SCc2csc(-c3ccc(Cl)cc3)n2)c(C#N)c1-c1ccc(OCCO)cc1 [CAPADENOSON]
17

Field: Population Pyknosed Nuclei (%) (HEK-293T). Entry: C[C@@H]1C[C@H]2[C@@H]3CCC4=CC(=O)C=C[C@]4(C)[C@@]3(F)[C@@H](O)C[C@]2(C)[C@@]1(O)C(=O)CO [DEXAMETHASONE]
13

Field: Population Pyknosed Nuclei (%) (HEK-293T). Entry: O=S(=O)(c1ccccc1)c1cnc2c(N3CCNCC3)cccc2c1 [INTEPIRDINE]
18

Field: Population Pyknosed Nuclei (%) (HEK-293T). Entry: CN1CCN2c3ncccc3Cc3ccccc3C2C1 (configuration not stated) [MIRTAZAPINE]
15

Field: Population Pyknosed Nuclei (%) (HEK-293T). Entry: `CN(C)c1ccnc2sc3c(=O)n(N4CCCCCC4)cnc3c12`
14

Field: Population Pyknosed Nuclei (%) (HEK-293T). Entry: C[C@H](NC(=O)c1c(C(F)F)nn(C)c1Oc1cccc(C(F)(F)F)c1)c1ccc(C(=O)O)cc1 [PALUPIPRANT]
16

Field: Population Pyknosed Nuclei (%) (HEK-293T). Entry: O=C(NCC(=O)N1CC[C@H](N[C@H]2CC[C@@](O)(c3ccc(-c4ncccn4)cn3)CC2)C1)c1cccc(C(F)(F)F)c1 [PF-4136309]
15

Field: Population Pyknosed Nuclei (%) (HEK-293T). Entry: CC(=O)NCCc1c(Cc2ccccc2)[nH]c2ccccc12 [LUZINDOLE]
14

----------
Tested on: HEK-293T
Experiment: Multiplex assay against HEK293T
Type: toxicity, cell-based
Details: human, 48 h, 1 µM, compound concentration 1 uM, replicate 2
# Population Fragmented Nuclei (%) values compiled below
Number first, unit second: that is the form wanted.

Given Smiles	Test Result
COc1c(C)cc(NC(=O)c2nn(Cc3ccc(F)cc3)c3c2CN(C(=O)c2ccc[nH]2)C[C@]3(C)C(N)=O)cc1C	12%
COc1cc(NC(=O)CCN2CCC(OC(=O)Nc3ccccc3-c3ccccc3)CC2)c(Cl)cc1CNC[C@H](O)c1ccc(O)c2[nH]c(=O)ccc12	13%
C[C@H](NC(=O)c1c(C(F)F)nn(C)c1Oc1cccc(C(F)(F)F)c1)c1ccc(C(=O)O)cc1	14%

Turning to the following molecule.
Recorded Population Fragmented Nuclei (%) for `O=C(O)Cc1ccccc1Nc1c(Cl)cccc1Cl` , please?
15%

----------
System: Fibroblast
Assay: Multiplex assay against human fibroblast
Type: toxicity, cell-based
Details: 48 h, 10 µM, compound concentration 10 uM, replicate 1
Please assign FALSE whenever Population Fragmented Nuclei (%) is at or above 20%, and TRUE whenever it is below.

Field: example entries. Status: answers known.
Compound	Classification
O=C(NCC(=O)N1CC[C@H](N[C@H]2CC[C@@](O)(c3ccc(-c4ncccn4)cn3)CC2)C1)c1cccc(C(F)(F)F)c1 [PF-4136309]	TRUE
Cc1ccc(F)cc1C(=O)Nc1ccc(C(=O)N2Cc3cccn3Cc3ccccc32)c(Cl)c1 [LIXIVAPTAN]	FALSE
CN(C)c1ccnc2sc3c(=O)n(N4CCCCCC4)cnc3c12	FALSE

Does Cc1ccccc1C(=O)Nc1ccc(C(=O)N2CCCC(N(C)C)c3ccccc32)cc1.Cl (stereo not given) have Population Fragmented Nuclei (%) strictly under 20%?
FALSE

----------
Tested on: U2OS
Assay: Multiplex assay against U2OS
Type: toxicity, cell-based
Details: human, 24 h, 10 µM, compound concentration 10 uM, replicate 2
# Total Cell Count values compiled below
I only need the number, thanks.

Answered examples (3):
Molecule	Tested System	Test Result
CCCN1CCC[C@@H]2Cc3n[nH]cc3C[C@H]21.Cl [QUINPIROLE HYDROCHLORIDE]	U2OS	163
O=S(=O)(c1ccccc1)c1cnc2c(N3CCNCC3)cccc2c1 [INTEPIRDINE]	U2OS	156
COc1cc(C(=O)N(CCCc2ccccc2)Cc2ccc(CC(=O)O)cc2)cc(OC)c1C	U2OS	192

Recorded Total Cell Count for CN1CCN2c3ncccc3Cc3ccccc3C2C1 (centres undefined) [MIRTAZAPINE] , please?
108

Recorded Total Cell Count for CSc1ccccc1N1CCN(CCCCCC(=O)NC2CCCc3ccccc32)CC1.Cl (centres undefined) , please?
112

Recorded Total Cell Count for `Cc1nc2ccc(Oc3ccc(F)cc3)cc2c(=O)n1C[C@H]1CCCN(C(C)C)C1.Cl` , please?
91

Recorded Total Cell Count for Cc1ccc(C(C)(O)c2nc3ccccc3s2)c(C)c1 (centres undefined) , please?
113

----------
# Population Mitotic Cells (%) values compiled below
System: U2OS
Test: Multiplex assay against U2OS
Assay type: toxicity, cell-based
Conditions: human, 24 h, 1 µM, compound concentration 1 uM, replicate 1
The response must be a number in % with no trailing unit.

Compound	Tested System	Population Mitotic Cells (%)
Cc1ccc(C(C)(O)c2nc3ccccc3s2)c(C)c1 (centres undefined)	U2OS	7
CC(C)(C)c1ccc(S(=O)(=O)Nc2ccc(Cl)cc2C(=O)c2cc[n+]([O-])cc2)cc1	U2OS	10
COc1cc(C(=O)N(CCCc2ccccc2)Cc2ccc(CC(=O)O)cc2)cc(OC)c1C	U2OS	15
CN(C)CCCc1cc(C(=O)Nc2ccc(-c3ccncc3)cc2)ccc1O.Cl.Cl	U2OS	0
Cc1ccc(/C(=C\CN2CCCC2)c2ccccn2)cc1	U2OS	10
COc1ccc2c(c1)C(C(=O)N(Cc1ccc(N(C)C)cc1)c1ccc(C(C)C)cc1)CCC2.Cl (centres undefined)	U2OS	24
CCOc1c2c(c(OCC)c3ncccc13)CN(c1ccc(CS(=O)(=O)NC(=O)Cc3ccccc3OC)cc1C)C2=O	U2OS	20
O=S(=O)(c1ccccc1)c1cnc2c(N3CCNCC3)cccc2c1 [INTEPIRDINE]	U2OS	19

Recorded Population Mitotic Cells (%) for `CCCn1c(=O)c2[nH]c(C3CCCC3)nc2n(CCC)c1=O` , please?
16

Recorded Population Mitotic Cells (%) for Cl.Clc1ccc2nsnc2c1NC1=NCCN1 [TIZANIDINE HYDROCHLORIDE] , please?
9

Recorded Population Mitotic Cells (%) for `CN1CCN(c2nc3cc(C(F)(F)F)ccc3n3cccc23)CC1.O=C(O)/C=C\C(=O)O.O=C(O)/C=C\C(=O)O` , please?
14

Recorded Population Mitotic Cells (%) for CN1CCN2c3ncccc3Cc3ccccc3C2C1 (centres undefined) , please?
14
